target: HLA-A*30:02; assay: IEDB peptide-MHC binding, purified MHC/competitive/radioactivity; filed as Kd, often an IC50 or EC50 that approximates it; bounds were set here for any values at or beyond the usual limits of such assays; conditions: source organism: Mammarenavirus machupoense
pKd: −log10 of the molar value.
value_kind: pKd

Prompt: Entry `GYVVSNFEGV` : reported pKd = ?
Completion: ≤ 4.16

---

target: HLA-B*58:01; assay: IEDB peptide-MHC binding, purified MHC/direct/fluorescence; filed as Kd, often an IC50 or EC50 that approximates it; bounds were set here for any values at or beyond the usual limits of such assays; conditions: source organism: Edwardsiella tarda
pKd: −log10 of the molar value.
value_kind: pKd

Prompt: What pKd value was documented for this sequence, `AFGLFWLVW` ?
Completion: ≤ 4.70
